List of koff values.
target: T1, recombinant BACE1 (BACE1 extracellular domain, R&D Systems Cat#931-AS) (UniProt P56817 22-457); assay: SPR Biacore
T1 construct: extracellular domain; also called BACE1 extracellular domain protein
T1 sequence (P56817 22-457): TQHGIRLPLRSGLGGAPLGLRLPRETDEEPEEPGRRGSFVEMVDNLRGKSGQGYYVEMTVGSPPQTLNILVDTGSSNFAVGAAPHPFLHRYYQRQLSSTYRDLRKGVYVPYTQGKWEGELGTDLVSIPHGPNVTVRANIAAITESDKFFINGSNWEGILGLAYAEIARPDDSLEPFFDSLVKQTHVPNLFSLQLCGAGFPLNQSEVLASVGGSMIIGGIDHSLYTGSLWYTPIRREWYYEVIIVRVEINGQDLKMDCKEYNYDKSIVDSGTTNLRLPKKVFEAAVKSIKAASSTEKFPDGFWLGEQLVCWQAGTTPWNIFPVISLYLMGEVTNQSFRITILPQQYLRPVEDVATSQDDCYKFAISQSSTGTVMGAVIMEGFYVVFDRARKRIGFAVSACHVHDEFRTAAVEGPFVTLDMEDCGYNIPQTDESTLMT
I only need the number, in s⁻¹, no unit after it.

Before answering, review these 3 worked examples.
- BINDER: "2H8.26 (antibody, human IgG1, V domains shown, human IgG1/kappa; also called 2H8_HCvar2 + 2H8_LCvar5) VH: EVQLQQPGTELVRPGTSVKLSCKASGYTFTNYWMHWIKQRPGQGLEWIGMIDPSDTYTKFNQNFKGKATLTVDTSSSTAYMQLNSLTSEDSAVYYCARSGVAFPYWGQGTTVTVSS VL: DIVMTQSQKFMSTSVGDRVSVTCKASQNVGTNVAWYQQKSGQSPKALIYSASHRYSGVPDRFTGSGSGTDFTLTISNVQSEDLAEYFCQQYNSYPYTFGGGTKLEIK"
  koff [s⁻¹]: 0.000312
- BINDER: "2H8.16 (antibody, human IgG1, V domains shown, human IgG1/kappa; also called 2H8_HCvar4 + 2H8_LCvar3) VH: EIQLQQSGTELVRPGTSVKLSCKASGYTFTNYWMHWVKQRPGQGLEWIGMIDPSAAYTNYNQNFKGKATLTVDTSSGTAYMQLSSLTSEDSAVYYCARSGVAFPYWGQGTTVTVSS VL: DIQMTQSQKFMSTSIGDRVSVTCKASQNVGTNVAWYQQKPGQSPKSLIYSASHWYSGVPDRFTGSGSGTDFTLTISNVQSEDLAEYFCQQYNSYPYTFGGGTKLEIK"
  koff [s⁻¹]: 0.000631
- BINDER: "2H8.12 (antibody, human IgG1, V domains shown, human IgG1/kappa; also called 2H8_HCvar6 + 2H8_LCvar2) VH: EVQLQQSGAELVRPGTSVKLSCKASGYTFNNYWMHWVKQRPGQGLEWIGMIDPSDDDIKNNQKFKGKATLTVDTSSSTAYMQLISLTSEDSAVYYCARSGVALPYWGQGTLVTVSA VL: DIVMTQSQKFMSTSVGDRVSVTCKASQNVGTNVAWYQQKPGQSPKALIYSASHRYSGVPDRFTGSGSGTDFTLTISNVQSEDLAEYFCQQYNSYMYTFGGGTKLEIK"
  koff [s⁻¹]: 0.00166

// query Requested field: koff. Item: 2H8.20 (antibody, human IgG1, V domains shown, human IgG1/kappa; also called 2H8_HCvar2 + 2H8_LCvar4) VH: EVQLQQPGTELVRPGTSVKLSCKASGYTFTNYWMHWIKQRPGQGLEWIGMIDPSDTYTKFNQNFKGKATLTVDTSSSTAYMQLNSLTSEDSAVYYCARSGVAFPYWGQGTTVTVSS VL: DIVMTQSQKFMSTSVGDRVSITCKASQNVGTNVAWYQQKPGQSPKALIYSASYRYSGVPDRFTGSGSGTDFTLTISNVQSEDLAEYFCQQYNSYPYTFGGGTKLEIK
// result 0.00147

// query Also check 2H8.21 (antibody, human IgG1, V domains shown, human IgG1/kappa; also called 2H8_HCvar3 + 2H8_LCvar4) VH: EVQLQQSGAELVRPGTSVKLSCKASGYTFTSYWIHWVKQRPGQGLEWIGMIDPSDSYTKYNQKFKDKATLTVDTSSSTTYMHLSSLTSEDSAVYYCARSGVAFPYWGQRTLVTVSA VL: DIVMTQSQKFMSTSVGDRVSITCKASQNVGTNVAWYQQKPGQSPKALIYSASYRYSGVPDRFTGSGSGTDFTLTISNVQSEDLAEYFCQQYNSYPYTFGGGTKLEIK
// result 0.00104
